Listing of entries alongside the reported Mean % WT Binding.
system: human CD33 A269S (human, UniProt P20138 18-364)
Sequence (P20138 18-364 A269S limits assumed): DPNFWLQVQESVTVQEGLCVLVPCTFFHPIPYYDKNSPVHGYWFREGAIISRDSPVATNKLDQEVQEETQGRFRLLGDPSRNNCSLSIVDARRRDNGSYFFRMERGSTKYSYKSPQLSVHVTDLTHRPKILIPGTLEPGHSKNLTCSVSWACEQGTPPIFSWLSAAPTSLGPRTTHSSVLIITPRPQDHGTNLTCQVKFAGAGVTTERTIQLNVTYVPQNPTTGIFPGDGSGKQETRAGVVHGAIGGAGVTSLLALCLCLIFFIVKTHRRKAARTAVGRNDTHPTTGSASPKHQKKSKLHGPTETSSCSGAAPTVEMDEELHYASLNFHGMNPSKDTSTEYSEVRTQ
assay-details: alanine scan, flow cytometry, HEK293-T;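 also: antibody binding to each alanine-substituted CD33 mutant expressed transiently in HEK293-T, read as fluorescence minus background, mean of duplicates, relative to wild-type CD33 set as 100%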
# value in % WT binding; strip the unit string

>  <binder>
Refmab #1 (antibody, V domains shown, The alanine scan used IgG or Fab; also called hP67.6) VH: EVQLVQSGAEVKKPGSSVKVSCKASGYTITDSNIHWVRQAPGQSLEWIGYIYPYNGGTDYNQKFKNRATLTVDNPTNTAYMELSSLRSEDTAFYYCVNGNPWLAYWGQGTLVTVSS VL: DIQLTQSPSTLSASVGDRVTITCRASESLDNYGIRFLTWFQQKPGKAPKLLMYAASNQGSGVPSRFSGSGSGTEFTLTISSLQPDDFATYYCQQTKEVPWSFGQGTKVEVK

>  <Mean % WT Binding, % WT binding>
107

$$$$
>  <binder>
Refmab #3 (antibody, V domains shown, The alanine scan used IgG or Fab) VH: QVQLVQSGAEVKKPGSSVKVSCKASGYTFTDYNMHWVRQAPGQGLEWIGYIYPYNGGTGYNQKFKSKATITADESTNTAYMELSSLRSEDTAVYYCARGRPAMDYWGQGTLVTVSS VL: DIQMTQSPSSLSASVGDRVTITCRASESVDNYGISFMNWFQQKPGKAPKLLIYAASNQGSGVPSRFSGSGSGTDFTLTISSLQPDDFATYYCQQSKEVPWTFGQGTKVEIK

>  <Mean % WT Binding, % WT binding>
97.4

$$$$

// Mean % WT Binding value for Refmab #2 (antibody, V domains shown, The alanine scan used IgG or Fab) VH: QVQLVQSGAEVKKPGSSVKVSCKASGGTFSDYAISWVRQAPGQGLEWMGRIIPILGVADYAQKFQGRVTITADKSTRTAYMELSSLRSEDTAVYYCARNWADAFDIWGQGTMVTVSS VL: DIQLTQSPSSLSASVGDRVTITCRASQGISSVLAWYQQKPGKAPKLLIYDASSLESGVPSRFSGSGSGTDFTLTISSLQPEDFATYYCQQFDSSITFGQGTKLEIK : 111

// Mean % WT Binding value for Refmab #4 (antibody, V domains shown, The alanine scan used IgG or Fab) VH: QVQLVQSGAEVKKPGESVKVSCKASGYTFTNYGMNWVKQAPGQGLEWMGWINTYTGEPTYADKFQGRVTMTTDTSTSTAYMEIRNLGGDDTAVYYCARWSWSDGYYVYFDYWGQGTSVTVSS VL: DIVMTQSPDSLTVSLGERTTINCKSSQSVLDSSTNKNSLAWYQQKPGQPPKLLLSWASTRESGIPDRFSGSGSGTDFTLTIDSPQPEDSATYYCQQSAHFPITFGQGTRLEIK : 83.6
